Values from ChEMBL document CHEMBL4513216

Assignment: determine reported cytotoxicity at 10 µM for the given compounds.
# Protocol Details: Toxicity liver stage against HepG2, at 10uM
# Assay type: cell-based
# Set-up: test concentration 10 uM, cell line HepG2-A16-CD81EGFP
# Measurement Conditions: human, HepG2-A16-CD81EGFP cells; read-out: INHIBITION
Answers are plain numbers, in %.

Worked examples, 3 compounds total:
• CC(=O)Nc1nc(C)c(S(=O)(=O)NCCc2cccnc2)s1 = -10.5
• CCn1cc(NC(=O)c2cc(C)nc(N3CCOCC3)n2)cn1 = 6
• CCOc1ccc(CC(CNC(=O)c2ccoc2C)C(N)=O)cc1 (centres undefined) = 7.87

Shifting focus to the compound that follows.
cytotoxicity at 10 µM measured on Cc1oc2c(c1C(=O)N1C[C@H](O)[C@]3(CCCO3)C1)CCCC2 = -0.4

* * *

# Protocol Details: Toxicity liver stage against HepG2, at 10uM
# Assay type: cell-based
# Set-up: test concentration 10 uM, cell line HepG2-A16-CD81EGFP
# Measurement Conditions: human, HepG2-A16-CD81EGFP cells; read-out: INHIBITION
Assignment: determine reported cytotoxicity at 10 µM for the given molecules.
Give bare numbers, in %.

- CCN(Cc1cccc(F)c1)c1ccc2nnnn2n1: 15.4
- CCc1cc(N[C@H]2CCC[C@H]2CO)n2nc(C)c(C)c2n1: 3.41
- CNC(=O)[C@@]12CCC3(CCN(S(=O)(=O)C4CC4)CC3)[C@@H]1CN(C(C)=O)C2: -0.201
- CC(C)=CCC1(C(=O)O)CCCN(c2ccnc(C)n2)C1 (configuration not stated): -0.842
- CC/C=C(\C)CN1CCC(CNC(=O)c2ccnc(N)c2)C1 (configuration not stated): 8.32
- Fc1ccc(CN[C@@H]2COC[C@H]2c2ccc(F)cc2)cc1: 2.57

// each molecule listed below needs its cytotoxicity at 10 µM
1. OCCOc1ccc(NCc2cc(F)cc3cccnc23)cn1
2. O=C(c1ccnnc1)N1CCN(Cc2ccncc2)c2ncccc2C1
3. CC(C)CN1CC(c2nc(-c3ccc(F)cc3)c[nH]2)CC1=O (configuration not stated)

Result block:
[-4.46, -0.201, 6.8]

// each molecule listed below needs its cytotoxicity at 10 µM
1. COc1cccc(-c2cc(CN)ccc2F)c1F
2. CC(C)(C)CNC1(Cc2cc(C(C)(C)O)on2)COC1
3. Cc1[nH]c(-c2ccccc2)nc1C(=O)N1CCC2(CCCO2)CC1

Result block:
1. -12.4
2. -6.11
3. 2.8

// each molecule listed below needs its cytotoxicity at 10 µM
1. Cc1nnc(N2C[C@H](Oc3ccccn3)[C@H]3OCCC[C@H]32)s1
2. COC(=O)CN(C(=O)C(C)c1c(F)cccc1F)c1cccc(C)n1 (configuration not stated)
3. CC(C)c1nc(C2CCCN(C(=O)Cc3cccnc3)C2)no1 (configuration not stated)
4. CCOC(=O)c1n[nH]cc1CN1CCOC(Cc2ccc(F)cc2)C1 (configuration not stated)

Result block:
[10.7, -2.8, -8.97, -3.92]

cytotoxicity at 10 µM measured on CN(Cc1nccn1CC(F)(F)F)C(=O)c1cccc(N(C)C)c1 = 3.92

* * *

Assignment: determine reported cytotoxicity at 10 µM for the given compounds.
# Protocol Details: Toxicity liver stage against HepG2, at 10uM
# Assay type: cell-based
# Set-up: test concentration 10 uM, cell line HepG2-A16-CD81EGFP
# Measurement Conditions: human, HepG2-A16-CD81EGFP cells; read-out: INHIBITION
Numbers only, in %.

Worked examples, 3 compounds total:
• Cc1n[nH]c(C)c1CC(=O)N1CCC(O)(CN2CCOCC2)C1 (configuration not stated) = 3.1
• Cc1ccc(C(CNCc2ncc[nH]2)N2CCOCC2)s1 (configuration not stated) = 12
• CN(Cc1ccccc1)C(=O)Cn1nc(N2CCOCC2)ccc1=O = 9.55

// each compound listed below needs its cytotoxicity at 10 µM
1. NC1CCCc2c1cnn2-c1cc(F)cc(F)c1 (configuration not stated)
2. Cc1ccc(N2N=C(C(=O)O)S(=O)(=O)c3cccnc32)cc1
3. CCOc1cc(C)nc(N2CCN(C(=O)c3ccnn3C)CC2)n1

Result block:
1. 6.54
2. -8.87
3. -4.37

// each compound listed below needs its cytotoxicity at 10 µM
1. CCn1cc(CN2CCCN(C(=O)CCSC)CC2)cn1
2. O=C(Nc1ccccn1)C1CCN(C(=O)COc2ccccc2F)C1 (configuration not stated)

Result block:
-1.11
-24.6

// each compound listed below needs its cytotoxicity at 10 µM
1. CCn1c(CN(C)C)nnc1C1CCN(Cc2cccc(F)c2F)CC1
2. CN(C)CCCNC(=O)c1ccnc(OCc2ccccc2)c1
3. CCN1CCCC(C)(C(=O)NCc2nccn2Cc2ccccc2)C1 (configuration not stated)

Result block:
1.49
-11.5
4.69

// each compound listed below needs its cytotoxicity at 10 µM
1. N#Cc1ccccc1N1CCCN(CC(=O)Nc2ccccc2Cl)CC1
2. O=C(CSc1nc2n[nH]cc2c(=O)n1-c1ccccc1)N1CCOCC1
3. CC(NC(=O)NCCCO)c1ccc2c(c1)OCCO2 (configuration not stated)

Result block:
[1.11, -8.21, -2.92]

// each compound listed below needs its cytotoxicity at 10 µM
1. COc1ccc(CN2CCC3(CC2)CC(CC(=O)NC(C)C)CO3)cc1 (configuration not stated)
2. CC(C)(C)C(=O)NCC(=O)NC1CC(c2cccc(Cl)c2)C1 (configuration not stated)
3. O=C(Cc1ccc(F)c(Br)c1)NC1CCN(CC(F)F)CC1

Result block:
[-1.27, -1.72, -22]
